methodSummary: Half life in Sprague-Dawley rat at 10 mg/kg, po by LC-MS/MS analysis
Format: ADME, organism-based
assaySetup: in vivo
parameterMeasured: half-life (h)
Write the answer as a number in h, unit excluded.

[Q] Which value of half-life has been reported for Cc1cccc(S(=O)(=O)Nc2cc(-c3sc(NC(=O)[C@@H](N)C(C)C)nc3C)cnc2Cl)c1 in the records?
[A] 3.28

---

methodSummary: Tmax in Sprague-Dawley rat at 10 mg/kg, po by LC-MS/MS analysis
Format: ADME, organism-based
assaySetup: in vivo
parameterMeasured: Tmax (min)
Write the answer as a number in min, unit excluded.

[Q] Which value of Tmax has been reported for Cc1cccc(S(=O)(=O)Nc2cc(-c3sc(NC(=O)[C@@H](N)C(C)C)nc3C)cnc2Cl)c1 in the records?
[A] 15
